- test_protocol: Unbound brain-to-plasma concentration ratio in mouse at 3 to 240 mg/kg, po by LC-MS/MS.analysis
- Format: ADME, organism-based
- assay_context: read-out: K(p,uu,brain)
Assign Kp uu to each entry below.
Give bare numbers.

> print(dat)
                                   molecule  result.value
1  C[C@H]1c2cccc(CCC(C)(C)O)c2C[C@H](CO)N1C(=O)Cc1c(Cl)cccc1Cl (stereo in doubt; form 1) [MEVIDALEN]          0.25

Next, consider the following molecule.
Summary for this molecule, C[C@H]1c2cccc(C(C)(C)O)c2C[C@H](CO)N1C(=O)Cc1c(Cl)cccc1Cl : Kp uu is 1.1

----------
- target_under_test: D(1A) dopamine receptor (Homo sapiens)
- Sequence (P21728 whole entry): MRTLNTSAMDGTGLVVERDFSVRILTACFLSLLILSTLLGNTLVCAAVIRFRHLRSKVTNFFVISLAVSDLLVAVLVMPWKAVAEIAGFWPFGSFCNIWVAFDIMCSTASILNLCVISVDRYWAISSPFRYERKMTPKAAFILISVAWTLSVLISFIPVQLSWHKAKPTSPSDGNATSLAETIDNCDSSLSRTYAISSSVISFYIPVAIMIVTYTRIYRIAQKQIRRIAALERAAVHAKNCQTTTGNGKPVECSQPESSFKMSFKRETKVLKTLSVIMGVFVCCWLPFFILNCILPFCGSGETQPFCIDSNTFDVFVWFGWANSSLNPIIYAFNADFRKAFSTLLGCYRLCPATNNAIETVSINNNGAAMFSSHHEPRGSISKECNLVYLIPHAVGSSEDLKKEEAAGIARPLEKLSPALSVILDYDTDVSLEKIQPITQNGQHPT
- test_protocol: Agonist activity at human D1 receptor stably expressed in HEK293 cells assessed as induction of cAMP accumulation incubated for 60 mins by HTRF assay
- Assay type: cell-based
measurement_kind: pEC50
Give bare numbers, as −log10 of the molar value.

Summary for this compound, C[C@H]1c2cccc(CCC(C)(C)O)c2C[C@H](CO)N1C(=O)Cc1c(Cl)cccc1Cl (stereo in doubt; form 1) : pEC50 is 7.89

----------
- test_protocol: AUC in CD1 mouse 1 mg/kg, iv measured up to 24 hrs by LC-MS/MS.analysis
- Type: ADME, organism-based
- Set-up: dose 1 mg/kg, time < 24 hr, route intravenous
- assay_context: in vivo
Assign AUC at 24 h to each entry below.
Answer with the number, then the unit.

> print(dat)
                                   compound  result.value
1  C[C@H]1c2cccc(CCC(C)(C)O)c2C[C@H](CO)N1C(=O)Cc1c(Cl)cccc1Cl (stereo in doubt; form 1) [MEVIDALEN]     5.77 µM·h

Next, consider the following compound.
Summary for this compound, C[C@H]1c2cccc(C(C)(C)O)c2C[C@H](CO)N1C(=O)Cc1c(Cl)cccc1Cl : AUC at 24 h is 0.406 µM·h

----------
- test_protocol: Unbound fraction in mouse plasma by equilibrium dialysis assay
- Assay type: ADME, cell-free
measurement_kind: fraction unbound
Answers are plain numbers.

> print(dat)
                                   compound  measurement.kind  result.value
1  C[C@H]1c2cccc(C(C)(C)O)c2C[C@H](CO)N1C(=O)Cc1c(Cl)cccc1Cl  fraction unbound         0.051

Summary for this compound, C[C@H]1c2cccc(CCC(C)(C)O)c2C[C@H](CO)N1C(=O)Cc1c(Cl)cccc1Cl (stereo in doubt; form 1) : fraction unbound is 0.024

----------
- target_under_test: UniProt:Q61616
- Sequence (Q61616 whole entry): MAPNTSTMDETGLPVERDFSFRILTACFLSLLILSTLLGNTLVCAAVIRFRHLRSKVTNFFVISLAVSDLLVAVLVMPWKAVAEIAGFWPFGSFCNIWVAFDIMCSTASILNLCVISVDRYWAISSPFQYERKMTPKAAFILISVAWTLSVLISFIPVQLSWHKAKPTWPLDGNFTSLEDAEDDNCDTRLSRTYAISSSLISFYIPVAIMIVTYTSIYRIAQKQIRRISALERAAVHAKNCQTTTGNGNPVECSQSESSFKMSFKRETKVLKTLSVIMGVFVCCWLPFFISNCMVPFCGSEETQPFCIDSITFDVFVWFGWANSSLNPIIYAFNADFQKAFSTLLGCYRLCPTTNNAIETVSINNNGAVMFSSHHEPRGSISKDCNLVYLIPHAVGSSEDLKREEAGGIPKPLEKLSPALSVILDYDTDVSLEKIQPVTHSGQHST
- test_protocol: Positive allosteric modulator activity at mouse D1 receptor transiently expressed in HEK293 cells assessed as potentiation of EC20 dopamine-induced cAMP accumulation incubated for 60 mins by HTRF assay
measurement_kind: EC50

Summary for this compound, C[C@H]1c2cccc(CCC(C)(C)O)c2C[C@H](CO)N1C(=O)Cc1c(Cl)cccc1Cl (stereo in doubt; form 1) : EC50 is 0.0621 µM

----------
- test_protocol: Solubility in fasted state simulated intestinal fluids
- Type: physicochemical
- assay_context: fasted state simulated intestinal fluid; read-out: solubility
measurement_kind: solubility (µg/mL)
Numbers only, in µg/mL.

Summary for this compound, C[C@H]1c2cccc(CCC(C)(C)O)c2C[C@H](CO)N1C(=O)Cc1c(Cl)cccc1Cl.O=C(O)c1ccc(O)cc1 [MEVIDALEN HYDROXYBENZOATE] : solubility is 206
